Item-by-item account of scaled log2 fold change
B1: library; numbered along this chain (parent)
chain: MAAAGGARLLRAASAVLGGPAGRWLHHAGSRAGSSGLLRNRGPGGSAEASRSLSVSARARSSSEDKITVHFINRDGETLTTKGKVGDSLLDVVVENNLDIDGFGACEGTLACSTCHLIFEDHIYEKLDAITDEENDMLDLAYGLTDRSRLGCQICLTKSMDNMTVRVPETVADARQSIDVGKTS

- Variants of: B1
- assay_text: scaled log2 fold change in cell abundance, elesclomol vs control (0 = silent mean, 1 = nonsense mean) (scaled log2 ratio); higher = higher viability under elesclomol (loss of FDX1 cuproptosis function);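 further: variant abundance is its share of total variant reads in each endpoint sample, from next-generation sequencing of the integrated ORF PCR-amplified out of genomic DNA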
- reported_conditions: with HEK293T FDX1 KO; elesclomol 40 nM; glucose 10 mM; 11 days
Number only, no unit.

{"changes": "E133K", "quantity_measured": "scaled log2 fold change", "experimental_value": 0.342}

Reported scaled log2 fold change, variant L17W : ____
-0.126

All figures here come from the supplement of paper PMC12855868.
